Values compiled from ChEMBL document CHEMBL4689842.

Tested on: U2OS
test_protocol: Multiplex assay against U2OS
Format: toxicity, cell-based
assay_context: human, 48 h, 1 µM, compound concentration 1 uM, replicate 1
Catalogue of Population Apoptotic (%) readings, one per entry.
Output should be the measured figure followed by the unit it is expressed in.

A selection of reference data follows.
compound	readout_value
CN1CCN(CCOc2cc(OC3CCOCC3)c3c(Nc4c(Cl)ccc5c4OCO5)ncnc3c2)CC1	56%
CN1CCCC(n2nc(Cc3ccc(Cl)cc3)c3ccccc3c2=O)CC1.Cl (centres undefined) [AZELASTINE HYDROCHLORIDE]	54%
Cc1[nH]c(/C=C2\C(=O)Nc3ccc(S(=O)(=O)N(C)c4cccc(Cl)c4)cc32)c(C)c1C(=O)N1CCN(C)CC1	80%
Cc1csc2c(N[C@@H](C)CN3CCN(S(=O)(=O)c4ccc(Cl)c(Cl)c4)CC3)ncnc12	77%
O=C1NCN(c2ccccc2)C12CCN(CCCOc1ccc(F)cc1)CC2 [SPIRAMIDE]	25%
Cc1cc(C)cc(-c2cnc3cc(Cl)c(-c4cccc(O)c4)cc3c2OCCCN)c1	48%
CN1CCN(c2ccc(OC(F)(F)F)c(Nc3ncc4c(n3)-c3c(c(C(N)=O)nn3CCO)CC4)c2)CC1	62%
CNc1nc(NCc2ccc(NS(C)(=O)=O)cc2Cl)cc(-c2ccccn2)n1	41%

In the following, a different compound is considered.
In: Name the reported Population Apoptotic (%) value associated with the compound c1cn2cc(-c3ccc4cn[nH]c4c3)nc(Nc3ccc(N4CCOCC4)cc3)c2n1
Out: 46%

---

System: U2OS
test_protocol: Multiplex assay against U2OS
Format: toxicity, cell-based
assay_context: human, 24 h, 1 µM, compound concentration 1 uM, replicate 1
assay_metric: Population Fragmented Nuclei (%)
Give the quantity in %, number only.

compound_smiles	Population Fragmented Nuclei (%)
Cc1csc2c(N[C@@H](C)CN3CCN(S(=O)(=O)c4ccc(Cl)c(Cl)c4)CC3)ncnc12	7

In the following, a different compound is considered.
In: Name the reported Population Fragmented Nuclei (%) value associated with the compound Cc1cc(C)cc(-c2cnc3cc(Cl)c(-c4cccc(O)c4)cc3c2OCCCN)c1
Out: 7

---

System: Fibroblast
test_protocol: Multiplex assay against human fibroblast
Assay type: toxicity, cell-based
assay_context: 12 h, 1 µM, compound concentration 1 uM, replicate 1
assay_metric: Total Cell Count
Lab note: record just the number, no unit beside it.

compound	Total Cell Count
C=CC(=O)Nc1ccc2ncnc(Nc3ccc(OCc4cccc(F)c4)c(Cl)c3)c2c1.Cc1ccc(S(=O)(=O)O)cc1	120

In: Name the reported Total Cell Count value associated with the compound C[C@@H](NCCCc1cccc(C(F)(F)F)c1)c1cccc2ccccc12.Cl [CINACALCET HYDROCHLORIDE]
Out: 125

In: Name the reported Total Cell Count value associated with the compound CN1CCCC(n2nc(Cc3ccc(Cl)cc3)c3ccccc3c2=O)CC1.Cl (stereo unspecified) [AZELASTINE HYDROCHLORIDE]
Out: 92

In: Name the reported Total Cell Count value associated with the compound O=C1NCN(c2ccccc2)C12CCN(CCCOc1ccc(F)cc1)CC2 [SPIRAMIDE]
Out: 136

In: Name the reported Total Cell Count value associated with the compound CN(C)C(=O)/C(C#N)=C/c1ccc(-c2nc3cnc4[nH]ccc4c3n2C2CCCCC2)o1
Out: 131

In: Name the reported Total Cell Count value associated with the compound C[C@@]1(C(=O)Nc2ccc(F)nc2)CCCN1c1nc(Nc2cc(C3CC3)n[nH]2)c2cccn2n1 [BMS-754807]
Out: 257

In: Name the reported Total Cell Count value associated with the compound Cc1nc(-c2ccc(-c3ccc(C(=O)N4CCc5cc6c(cc54)C4(CCN(C)CC4)CO6)cc3)c(C)c2)no1 [SB-224289]
Out: 188

In: Name the reported Total Cell Count value associated with the compound Cc1csc2c(N[C@@H](C)CN3CCN(S(=O)(=O)c4ccc(Cl)c(Cl)c4)CC3)ncnc12
Out: 149

In: Name the reported Total Cell Count value associated with the compound NC(=O)Nc1cc(-c2cccc(F)c2)sc1C(=O)N[C@H]1CCCNC1 [AZD-7762]
Out: 226

In: Name the reported Total Cell Count value associated with the compound COc1ncc(-c2ccc3nccc(-c4ccnnc4)c3c2)cc1NS(=O)(=O)c1ccc(F)cc1F [OMIPALISIB]
Out: 81

In: Name the reported Total Cell Count value associated with the compound Cc1nc(-c2cn3c(n2)-c2ccc(-c4cnn(C(C)(C)C(N)=O)c4)cc2OCC3)n(C(C)C)n1 [TASELISIB]
Out: 221

In: Name the reported Total Cell Count value associated with the compound CC(C)NCC(O)COc1ccc(CCOCC2CC2)cc1.Cl (stereo unspecified) [BETAXOLOL HYDROCHLORIDE]
Out: 84

In: Name the reported Total Cell Count value associated with the compound Cc1cc(C)cc(-c2cnc3cc(Cl)c(-c4cccc(O)c4)cc3c2OCCCN)c1
Out: 60

In: Name the reported Total Cell Count value associated with the compound CN1CCN(c2ccc(OC(F)(F)F)c(Nc3ncc4c(n3)-c3c(c(C(N)=O)nn3CCO)CC4)c2)CC1 [ONVANSERTIB]
Out: 168

In: Name the reported Total Cell Count value associated with the compound c1cn2cc(-c3ccc4cn[nH]c4c3)nc(Nc3ccc(N4CCOCC4)cc3)c2n1 [ENTOSPLETINIB]
Out: 81

In: Name the reported Total Cell Count value associated with the compound COc1cc(-n2cnc3cc(-c4ccc(Cl)cc4)sc3c2=O)ccc1OCCN1CCCC1
Out: 121

In: Name the reported Total Cell Count value associated with the compound CCN(CC)CCCCNc1ncc2cc(-c3cc(OC)cc(OC)c3)c(NC(=O)NC(C)(C)C)nc2n1 [PD-173074]
Out: 749

In: Name the reported Total Cell Count value associated with the compound CC[C@H](C)C(=O)O[C@H]1C[C@@H](C)C=C2C=C[C@H](C)[C@H](CC[C@@H]3C[C@@H](O)CC(=O)O3)[C@H]21 [LOVASTATIN]
Out: 69

In: Name the reported Total Cell Count value associated with the compound OC1(c2ccc(Cl)cc2)CCN(Cc2c[nH]c3ccccc23)CC1
Out: 169

In: Name the reported Total Cell Count value associated with the compound Cc1c(-c2ccc(O)cc2)n(Cc2ccc(OCCN3CCCCCC3)cc2)c2ccc(O)cc12 [BAZEDOXIFENE]
Out: 106

In: Name the reported Total Cell Count value associated with the compound C=CC(=O)Nc1cccc(C(=O)Nc2ccc(Nc3cc(-c4[nH]c(SC)nc4C)ccn3)cc2)c1
Out: 131

In: Name the reported Total Cell Count value associated with the compound CN1CCC[C@@H]1CCO[C@](C)(c1ccccc1)c1ccc(Cl)cc1.O=C(O)/C=C/C(=O)O [CLEMASTINE FUMARATE]
Out: 92

In: Name the reported Total Cell Count value associated with the compound Cl.N#Cc1ccc2[nH]cc(CCCCN3CCN(c4ccc5oc(C(N)=O)cc5c4)CC3)c2c1 [VILAZODONE HYDROCHLORIDE]
Out: 116

In: Name the reported Total Cell Count value associated with the compound Cc1[nH]c(/C=C2\C(=O)Nc3ccc(S(=O)(=O)N(C)c4cccc(Cl)c4)cc32)c(C)c1C(=O)N1CCN(C)CC1
Out: 68

In: Name the reported Total Cell Count value associated with the compound CN(C)C(=O)N[C@H]1CC[C@H](CCN2CCN(c3cccc(Cl)c3Cl)CC2)CC1.Cl [CARIPRAZINE HYDROCHLORIDE]
Out: 83

---

Catalogue of Population Mitochondria Different-Phenotype (%) readings, one per entry.
System: U2OS
test_protocol: Multiplex assay against U2OS
Type: toxicity, cell-based
assay_context: human, 12 h, 1 µM, compound concentration 1 uM, replicate 1
Give the quantity in %, number only.

A selection of reference data follows.
molecule	readout_value
C[C@@]1(C(=O)Nc2ccc(F)nc2)CCCN1c1nc(Nc2cc(C3CC3)n[nH]2)c2cccn2n1	10
COc1ncc(-c2ccc3nccc(-c4ccnnc4)c3c2)cc1NS(=O)(=O)c1ccc(F)cc1F	3
c1cn2cc(-c3ccc4cn[nH]c4c3)nc(Nc3ccc(N4CCOCC4)cc3)c2n1	36

In the following, a different molecule is considered.
In: Name the reported Population Mitochondria Different-Phenotype (%) value associated with the molecule CC(C)(O)CNc1ncc(-c2ccnc(Nc3ccnc(Cl)c3)n2)c(CC2CC2)n1
Out: 24

---

System: U2OS
test_protocol: Incucyte cell viability with U2OS; note: filed as whole numbers so only -1 and 0 and 1 occur
Type: toxicity, cell-based
assay_context: human, 18 h, 10 µM, compound concentration 10 uM, replicate number 1, timepoint 18 hours
assay_metric: Growth Rate

A selection of reference data follows.
compound	readout_value
COc1ccc(C2(O)OC(=O)C(c3ccc4c(c3)OCO4)=C2Cc2cc(OC)c(OC)c(OC)c2)cc1 (configuration not stated)	0
CNCCC(Oc1ccc(C(F)(F)F)cc1)c1ccccc1.Cl (configuration not stated) [FLUOXETINE HYDROCHLORIDE]	1
Cc1nc(C2CCN(C(=O)c3ccc(OC(F)(F)F)cc3N)CC2)c2ncc(N3CCN(C)CC3)cc2n1	0
Cc1c(OCc2cccc(-c3ccc(C(=O)O)cc3)c2)cc2c(c1C)C(=O)C(C1CCCC1)C2 (configuration not stated)	1
CCn1cc(-c2cccc(C(F)(F)F)c2)c2sc(C(=N)NC3CCS(=O)(=O)CC3)cc2c1=O	0

In: Name the reported Growth Rate value associated with the compound C[C@H](c1ccc(F)cc1)N(Cc1ccc(Cl)c(C(=O)O)c1)C(=O)c1cnc2ccccc2c1
Out: 1

In: Name the reported Growth Rate value associated with the compound C[C@@H](c1cccc(CN)c1)n1cc(Cl)cc(C(N)=O)c1=N.Cl
Out: 1
